- test name: chemical genetic growth profiling, strain panel (AID 1159580);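 also: tested at 20 µM; growth read once vehicle control cultures reached saturation at 30 °C; 1 = growth at the plate median or of vehicle wells; lower values mean less growth of the strain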
- test conditions: S. cerevisiae deletion strains, growth OD, locus YDR335W, strain msn5, active compounds read low
Hit rate of the full screen: of about 5,500 compounds, about 2,000 (36%) were called active. About 18% were inconclusive and are not listed. Some of the results follow.
observed property: normalized growth
Give the figure only, with no unit attached.

Task item: Can you look up the measured normalized growth of COc1cc(OC)c2c(=O)c(-c3ccccc3)coc2c1 for me?
Reply: 0.98

Task item: Try this compound next: CCCCOC(=O)c1ccc(N)cc1
Reply: 0.858

Task item: Try this compound next: Nc1ccn(C2O[C@H](CO)[C@@H](O)[C@@H]2O)c(=O)n1 (stereo partly drawn)
Reply: 0.997

Task item: Try this compound next: CCN(CC)CCOC(=O)c1ccc(N)cc1
Reply: 0.981

Task item: Try this compound next: CCCCN(CCCC)CCCOC(=O)c1ccc(N)cc1
Reply: 0.989

Task item: Try this compound next: CCCCC(=O)Oc1ccccc1C(=O)O
Reply: 0.98

Task item: Try this compound next: NC(=O)c1cccc(N)c1
Reply: 0.97

Task item: Try this compound next: O=c1[nH]oc2c1CCNC2
Reply: 1

Task item: Try this compound next: CCOC(=O)[C@H](CCc1ccccc1)N[C@@H](C)C(=O)N1[C@H](C(=O)O)C[C@@H]2CCC[C@@H]21
Reply: 0.985

Task item: Try this compound next: C=C1CCC(C2CC(=O)OC2=O)C(=O)CCC2C1CC2(C)C (stereo not drawn)
Reply: 1.02

Task item: Try this compound next: COc1c(OC)c2occc2c2oc(=O)ccc12
Reply: 0.978

Task item: Try this compound next: CCCCOC(=O)c1ccccc1C(=O)OCCCC
Reply: 0.992

Task item: Try this compound next: C=C1CCC2C(CC2(C)C)C(=O)CCC1O (stereo not drawn)
Reply: 0.985
